system: NCI/ADR-RES; experiment: NCI tumour cell line growth inhibition, 48 h
Active and inactive are the calls of the source. Cut-off read from the data, not from the text of the source: active = GI50 up to about 1.1 µM and inactive = higher.
Parameter call: string, one of active, inactive

Problem: Check the results log: what was the call for `Cc1cc2nc3c(C#N)c(-c4ccccc4)cc(Nc4cccc(C(F)(F)F)c4)n3c2cc1C` ?
Solution: inactive

Problem: Check the results log: what was the call for `CCc1nc(N)nc(N)c1-c1ccc(Cl)c([N+](=O)[O-])c1` ?
Solution: active

Problem: Check the results log: what was the call for `COc1cc2c(cc1C[C@H]1[C@@H]3C[C@H]4c5c(c6ccccc6n5C)C[C@@H]([C@@H]3CO[C@]1(C)OC(C)=O)N4C)c1c(n2C)C2C[C@H]3C(C(C)=O)=COC[C@H]3[C@H](C1)N2C` ?
Solution: inactive

Problem: Check the results log: what was the call for `c1ccc2c(c1)nc1n2CCCn2ccnc2-1` ?
Solution: inactive

Problem: Check the results log: what was the call for `COc1cc2c(cc1OCCCOS(C)(=O)=O)N=C[C@@H]1CCCN1C2=O` ?
Solution: inactive

Problem: Check the results log: what was the call for O=C1CC(c2cccc(F)c2)Nc2cc3c(cc21)OCO3 (centres undefined) ?
Solution: active

Problem: Check the results log: what was the call for `COc1cc2oc3ccccc3c(=O)c2cc1CSc1ccccc1N` ?
Solution: inactive

Problem: Check the results log: what was the call for `c1ccc2c(c1)Cn1c-2nc2ccccc21` ?
Solution: inactive

Problem: Check the results log: what was the call for `S=c1oc(CCCCCCCCc2nn(CNc3ccccc3)c(=S)o2)nn1CNc1ccccc1` ?
Solution: inactive

Taken from ChEMBL document CHEMBL1201862.
